Hey, just so you know, these numbers are from PubChem BioAssay (NCI).

System: NCI-H322M lung
measurement protocol: NCI-60 one-dose screen, 48 h (100 = growth as untreated, 0 = no growth, -100 = all killed)
condition description: 10 µM unless noted
This is part of a sample that, as a whole, favours compounds with a hit. Of some 83,000 tested, about 20% had one in any assay.
Categories are assigned from the measured growth using these intervals: A: < 40%; B: ≥ 40% and < 80%; C: ≥ 80%

input: Kindly identify the class of N#Cc1c(NC(=O)c2cccc(C(F)(F)F)c2F)sc2c1CCC(=O)C2 .
output: A

input: Kindly identify the class of COc1ccc(-c2nc3ccc(-c4nnc(SCC(=O)Nc5ccc(C(=O)/C=C/c6ccc(Cl)cc6)cc5)o4)cc3[nH]2)cc1 .
output: C

input: Kindly identify the class of COc1ccccc1N1CCN(C2=CC(=O)C(C)=C(C)C2=O)CC1 .
output: C

input: Kindly identify the class of Cn1ccnc1C(=O)/C=C/c1ccc(CNC(=O)c2ccc(S(F)(F)(F)(F)F)cc2)cc1 .
output: A

input: Kindly identify the class of Cc1ccc(C2=Nn3c(nnc3-c3ccccc3)SC2)cc1 .
output: B

input: Kindly identify the class of C=C(C)[C@@H]1CC[C@]2(COCCCNCCC#N)CC[C@]3(C)[C@H](CC[C@@H]4[C@@]5(C)CC[C@H](OCCCNCCC#N)C(C)(C)[C@@H]5CC[C@]43C)[C@@H]12 .
output: C

input: Kindly identify the class of CCCCCc1ccc(S(=O)(=O)Nc2cc(-c3csc(NC(=O)CN4CCN(CCO)CC4)n3)ccc2OC)cc1 .
output: B
